Assay: Mouse pharmacokinetics, plasma
Assay type: in vivo
Conditions: female, BALB/c, mouse, plasma, po, 50 mg/kg, single 50 mg/kg p.o.; female BALB/c mice
recorded_endpoint: Cmax (µM)
Report as a plain number; the unit µM is understood.

In: Given Cc1cn(-c2ccc3c(c2)CN(c2ncc(Cc4ccc(-n5cccn5)cc4)s2)CC3)c(C)n1 [FLS-359] , state its recorded Cmax.
Out: 89.3

###

Experiment: Mouse pharmacokinetics, plasma
Assay type: in vivo
Conditions: mouse, plasma, po; single 50 mg/kg p.o.; female BALB/c mice
recorded_endpoint: AUC(0-inf) (µM·h)
The reply should be a number in µM·h, with the unit left off.

In: // AUC(0-inf) lookup, key: Cc1cn(-c2ccc3c(c2)CN(c2ncc(Cc4ccc(-n5cccn5)cc4)s2)CC3)c(C)n1
Out: 713

###

Experiment: Mouse pharmacokinetics, plasma
Type: in vivo
Settings: single 50 mg/kg p.o.; female BALB/c mice; plasma; 50 mg/kg
recorded_endpoint: Cmax (µM)
Unit µM implied. Number only.

In: Param item = Cc1cn(-c2ccc3c(c2)CN(c2ncc(Cc4ccc(-n5cccn5)cc4)s2)CC3)c(C)n1 ; retrieve measured Cmax.
Out: 89

###

Assay: Host cell cytotoxicity, Calu3
Type: cell-based
Conditions: Calu3 cells; human Calu3; SARS-CoV-2 assay
recorded_endpoint: CC50 (µM)
Only the number, expressed in µM, is required.

In: Given Cc1cn(-c2ccc3c(c2)CN(c2ncc(Cc4ccc(-n5cccn5)cc4)s2)CC3)c(C)n1 [FLS-359] , state its recorded CC50.
Out: 15.8

###

Tested on: HCMV TB40/E-mCherry-UL99eGFP
Experiment: HCMV delayed treatment protocol, infected cell area in MRC-5
Conditions: Human betaherpesvirus 5, MRC5, 120 h, read-out: IC50, infected cell area, drug added at 48 hpi; 5 days of treatment
recorded_endpoint: pIC50
# reply with the number alone; pIC50 is -log10 of concentration in mol/L

In: Quick one: pIC50 for Cc1cn(-c2ccc3c(c2)CN(c2ncc(Cc4ccc(-n5cccn5)cc4)s2)CC3)c(C)n1 ?
Out: 6.10

###

Experiment: Host cell cytotoxicity, PHH
Details: human
recorded_endpoint: CC50

In: Which CC50 value belongs to Cc1cn(-c2ccc3c(c2)CN(c2ncc(Cc4ccc(-n5cccn5)cc4)s2)CC3)c(C)n1 ?
Out: > 10 µM

###

Experiment: Host cell cytotoxicity, Akata
Assay type: cell-based
Conditions: Akata cells (Burkitt lymphoma cell line); human Akata; Epstein-Barr assay
recorded_endpoint: CC50

In: Could you share which CC50 value was measured for Cc1cn(-c2ccc3c(c2)CN(c2ncc(Cc4ccc(-n5cccn5)cc4)s2)CC3)c(C)n1 ?
Out: > 100 µM

###

Tested on: Hepatitis B virus (genotype D, subtype ayw)
Test: microbe, parasite or virus in culture
Conditions: Hepatocyte, read-out: IC50, Hepatitis B
recorded_endpoint: pIC50
In textbook form, pIC50 equals minus log to base ten of the concentration in mol/L.

In: Could you tell me which pIC50 is on file for Cc1cn(-c2ccc3c(c2)CN(c2ncc(Cc4ccc(-n5cccn5)cc4)s2)CC3)c(C)n1 ?
Out: 5.32

###

Test: Mouse pharmacokinetics, plasma
Assay type: in vivo
Conditions: mouse, plasma, po; single 50 mg/kg p.o.; female BALB/c mice
Procedure: The pharmacokinetics study used fed female BALB/c mice (22 g, n = 3 per time point). Blood samples (~30 μL via saphenous vein puncture) were taken at 0.25, 0.5, 1, 2, 4, 8, and 24 hours. […] The lower limit of quantification was 10 ng/mL. […] The supernatant was diluted 10× with methanol/water (1:1 vol/vol with 0.1% formic acid), and 2 μL aliquots were analyzed using a QTRAP 4000 LC-MS/MS System (Sciex) with a C18 column (Kinetex). […]
recorded_endpoint: Tmax (h)
The response must be a number in h with no trailing unit.

In: What value of Tmax has been reported for the following compound? Cc1cn(-c2ccc3c(c2)CN(c2ncc(Cc4ccc(-n5cccn5)cc4)s2)CC3)c(C)n1
Out: 2

###

Test: Host cell cytotoxicity, HFF
Conditions: human, HFF cells
recorded_endpoint: CC50 (µM)
Please state the figure in µM; there is no need to write the unit.

In: What CC50 value was documented for this compound, Cc1cn(-c2ccc3c(c2)CN(c2ncc(Cc4ccc(-n5cccn5)cc4)s2)CC3)c(C)n1 [FLS-359] ?
Out: 41.6

###

Experiment: Mouse pharmacokinetics, plasma
Type: in vivo
Settings: female, BALB/c, mouse, in vivo, po, 50 mg/kg, single 50 mg/kg p.o.; female BALB/c mice; read-out: plasma half-life (T1/2) (converted)
recorded_endpoint: half-life
Please give the number followed by its unit.

In: Reported half-life for Cc1cn(-c2ccc3c(c2)CN(c2ncc(Cc4ccc(-n5cccn5)cc4)s2)CC3)c(C)n1 : what is it?
Out: 5.8 h
